Target: T1, transforming growth factor-beta 2 (TGF-β2) (UniProt P61812 303-414)
T1 construct: also called TGFb2; TGFB2
T1 sequence (looked up): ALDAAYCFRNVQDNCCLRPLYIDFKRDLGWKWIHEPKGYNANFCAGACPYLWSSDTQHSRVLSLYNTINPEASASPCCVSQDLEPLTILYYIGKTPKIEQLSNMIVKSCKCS
Assay: ELISA, peptide on streptavidin plate, ligand 100 ng/ml
Experimental: Biotinylated synthetic peptide fragments from CLPTM1 (JPT peptides, Germany) were immobilized in a streptavidin 96 well plate (#15500 Pierce) at 1 μM in PBS over night at +4° C. Plate was then washed 4 times in 300 μl PBS with 0.05% tween-20 (wash buffer). The plate was then blocked with PBS 1% BSA and 0.05% tween-20 (blocking buffer) for 1.5 hours at room temperature, then washed 4 times in wash buffer. […] OD 450-620 was measured in an ELISA reader.
Ends that are not written are not given here.
Reported Property: ELISA OD450 (OD450)
Reply numerically in OD450, unit not repeated.

Consider the reported ELISA OD450 for these binders:
RIFIIWAISSWFRRGPAPQDG (also: biotinylated, site not given here) [CLPTM1 peptide fragment of SEQ ID NO: 11]: -0.003
LDQYVKFDAVSGDYYPIIYFG (also: biotinylated, site not given here, also called peptide 14) [CLPTM1 peptide fragment of SEQ ID NO: 21]: 0.019

Query (binder): YEQSDEEQDSVKVALLETNPG (also: biotinylated, site not given here) [CLPTM1 peptide fragment of SEQ ID NO: 25] ; field requested: ELISA OD450 0.007

What about GSIYIHVYFTKSGFHPDPRQG (also: biotinylated, site not given here) [CLPTM1 peptide fragment of SEQ ID NO: 16] ? 0.107

Reference for the values: patent US20190328788A1
